- assay.protocol: Metabolic stability in human liver microsomes assessed as compound remaining at 3 uM after 60 mins by UV-LC/MS analysis
- Format: ADME
- conditions.used: read-out: Stability
property.measured: remaining at 1 h, 3 µM (%)
Reply with just the number (in %).

For CC(C)[C@@H](NC(=O)N[C@H]1CC[C@H](O)C1)C(=O)N1CC[C@](O)(c2ccc(Cl)cc2)C(C)(C)C1 the molecule record lists remaining at 1 h, 3 µM as 99

What the record says about CC(C)[C@@H](NC(=O)CC(C)(C)O)C(=O)N1CC[C@](O)(c2ccc(Cl)cc2)C(C)(C)C1 : remaining at 1 h, 3 µM is 100

For CC[C@@H](C)NC(=O)N[C@@H](C(=O)N1CC[C@](O)(c2ccc(Cl)cc2)C(C)(C)C1)C(C)C the molecule record lists remaining at 1 h, 3 µM as 59

The molecule listed as CC(C)[C@@H](NC(=O)N[C@H]1CC[C@@H](O)C1)C(=O)N1CC[C@](O)(c2ccc(Cl)cc2)C(C)(C)C1 shows remaining at 1 h, 3 µM equal to 92

molecule CC(C)[C@@H](NC(=O)C[C@@H](C)O)C(=O)N1CC[C@](O)(c2ccc(Cl)cc2)C(C)(C)C1 , remaining at 1 h, 3 µM observed: 87

Record CC(C)[C@@H](NC(=O)N1CCCC1)C(=O)N1CC[C@](O)(c2ccc(Cl)cc2)C(C)(C)C1 , field remaining at 1 h, 3 µM: 2

Record summary for CC(C)[C@@H](NC(=O)NC1CCCC1)C(=O)N1CC[C@](O)(c2ccc(Cl)cc2)C(C)(C)C1 : reported remaining at 1 h, 3 µM = 77

Record CC(C)[C@@H](NC(=O)N[C@@H]1CC[C@H](O)C1)C(=O)N1CC[C@](O)(c2ccc(Cl)cc2)C(C)(C)C1 . Reported remaining at 1 h, 3 µM: 76

For CC[C@H](C)NC(=O)N[C@@H](C(=O)N1CC[C@](O)(c2ccc(Cl)cc2)C(C)(C)C1)C(C)C the molecule record lists remaining at 1 h, 3 µM as 65

Item: CC(C)[C@@H](NC(=O)NCc1ccccc1)C(=O)N1CC[C@](O)(c2ccc(Cl)cc2)C(C)(C)C1 | remaining at 1 h, 3 µM: 3

Record CC(C)[C@@H](NC(=O)N[C@@H]1CC[C@@H](O)C1)C(=O)N1CC[C@](O)(c2ccc(Cl)cc2)C(C)(C)C1 , field remaining at 1 h, 3 µM: 100

* * *

- assay.protocol: Metabolic stability in human liver microsomes assessed as compound remaining at 0.5 uM after 60 mins by UV-LC/MS analysis
- Format: ADME
- conditions.used: read-out: Stability
property.measured: remaining at 1 h, 0.5 µM (%)
Quick reminder: number only, in %, skip the unit.

Sure, the documented remaining at 1 h, 0.5 µM for CC(C)[C@@H](NC(=O)CCC(C)(C)O)C(=O)N1CC[C@](O)(c2ccc(Cl)cc2)C(C)(C)C1 is 91

compound CC(C)[C@@H](NC(=O)NC[C@@H](C)O)C(=O)N1CC[C@](O)(c2ccc(Cl)cc2)C(C)(C)C1 , remaining at 1 h, 0.5 µM observed: 88

// sample CC(C)[C@@H](NC(=O)NC[C@H](C)O)C(=O)N1CC[C@](O)(c2ccc(Cl)cc2)C(C)(C)C1 , its remaining at 1 h, 0.5 µM was 88

Note to self: remaining at 1 h, 0.5 µM recorded for CC(C)[C@@H](NC(=O)NCC(C)(C)O)C(=O)N1CC[C@](O)(c2ccc(Cl)cc2)C(C)(C)C1 was 100
